# ASSAYED_TARGET: Prostaglandin G/H synthase 2 (Homo sapiens)
# Sequence (P35354 whole entry): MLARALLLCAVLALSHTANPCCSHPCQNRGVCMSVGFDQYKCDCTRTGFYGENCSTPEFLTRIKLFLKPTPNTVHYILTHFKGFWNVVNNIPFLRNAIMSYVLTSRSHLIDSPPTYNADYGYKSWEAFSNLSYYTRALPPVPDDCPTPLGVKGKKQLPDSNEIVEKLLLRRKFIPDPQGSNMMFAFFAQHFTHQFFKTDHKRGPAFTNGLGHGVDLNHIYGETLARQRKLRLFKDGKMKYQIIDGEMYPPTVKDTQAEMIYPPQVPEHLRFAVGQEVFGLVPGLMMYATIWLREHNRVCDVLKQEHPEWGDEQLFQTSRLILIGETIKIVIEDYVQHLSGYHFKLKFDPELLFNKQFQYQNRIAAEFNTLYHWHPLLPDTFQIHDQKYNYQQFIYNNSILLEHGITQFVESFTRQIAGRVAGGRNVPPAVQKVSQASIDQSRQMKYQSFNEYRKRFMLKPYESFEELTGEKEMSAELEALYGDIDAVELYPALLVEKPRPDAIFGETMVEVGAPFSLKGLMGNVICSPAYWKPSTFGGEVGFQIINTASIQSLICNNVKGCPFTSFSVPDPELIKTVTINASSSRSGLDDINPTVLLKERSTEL
# TEST_DESCRIPTION: Inhibition of COX-2 (unknown origin)
For each of the compounds below, state its IC50.
Answers are plain numbers, in µM.

{"columns": ["COMPOUND", "ASSAYED_TARGET", "ENDPOINT_RESULT"],
 "data": [
  ["O=C1C[C@]23CC[C@H](O)[C@]2(COC3=O)c2c(O)ccc(O)c21", "Prostaglandin G/H synthase 2 (Homo sapiens)", 25.5]
]}

We next turn to a different compound, shown below.
Q: Tell me its IC50 given COC1(c2cc(O)ccc2O)C=C(CC[C@@H]2C(C)(C)[C@@H]3CC[C@]2(C)O3)C(=O)O1 (some centres not stated) as the entry.
A: 9.96

###

# TEST_DESCRIPTION: Cytotoxicity against rat IEC-6 cells assessed as cell growth inhibition by WST-1 assay
# Assay type: toxicity, cell-based
QUANTITY: IC50
# answer = value followed by unit

Q: Tell me its IC50 given C=C1[C@@]2(C)C[C@H]3C(=C)[C@]4(C=CC(=O)OC4(C)C)CC[C@]3(C)[C@@]13C(=O)O[C@@H](C)[C@@]3(O)C2=O as the entry.
A: 2.52 µg/mL

###

For each of the compounds below, state its IC50.
# TEST_DESCRIPTION: Inhibition of Saccharomyces cerevisiae alpha-glucosidase using p-nitrophenyl-alpha-D -glucopyranoside as substrate pre-incubated for 10 mins followed by substrate addition measured after 15 mins by absorbance based analysis
# answer = value followed by unit

{"columns": ["STRUCTURE", "IC50"],
 "data": [
  ["COC(=O)[C@H](Cc1ccccc1)N1Cc2c(cc(O)c(C/C=C(\\C)CC/C=C(\\C)C(=O)O)c2O)C1=O", "40.8 µM"]
]}

Give one value of IC50 per listed compound.
1. COC(=O)[C@H](CCCCN1Cc2c(cc(O)c(C/C=C(\C)CC/C=C(\C)C(=O)O)c2O)C1=O)N1Cc2c(cc(O)c(C/C=C(\C)CC/C=C(\C)C(=O)O)c2O)C1=O
2. C/C(=C\Cc1c(O)cc2c(c1O)CN(CCCC[C@@H](C(=O)O)N1Cc3c(cc(O)c(C/C=C(\C)CC/C=C(\C)C(=O)O)c3O)C1=O)C2=O)CC/C=C(\C)C(=O)O

A:
36.2 µM
39.2 µM

###

# TEST_DESCRIPTION: Antioxidant activity assessed as DPPH radical scavenging activity
# Format: functional
QUANTITY: pIC50
Give bare numbers, as −log10 of the molar value.

Q: Tell me its pIC50 given C/C(=C\CCC1=CC(c2cc(O)ccc2O)OC1=O)C(=O)O (stereo unspecified) as the entry.
A: 4.18

###

# TEST_DESCRIPTION: Inhibition of rat intestinal sucrase
QUANTITY: IC50 (µM)
Numbers only, in µM.

Q: Tell me its IC50 given C/C(=C\CC/C(=C/Cc1cc(O)ccc1O)C(=O)O)CC[C@@H](O)C(C)(C)O as the entry.
A: 14.6

###

# System: Plasmodium falciparum
# TEST_DESCRIPTION: Antimalarial activity multidrug-resistant Plasmodium falciparum K1 assessed as inhibition of parasite growth by [3H]-hypoxanthine incorporation assay
# Format: functional, organism-based
QUANTITY: IC50 (µM)
Answers are plain numbers, in µM.

Q: Tell me its IC50 given CC(=O)O[C@H]1C[C@@H](OC(C)=O)[C@@]2(C)[C@@H](CC[C@]3(C)[C@@H]2CC[C@]2(C)Oc4oc(C)cc(=O)c4C[C@@H]32)C1(C)C as the entry.
A: 6.67
